# SUBJECT OF TEST: S. pneumoniae recombinant NanA 20566_LC (Streptococcus pneumoniae, UniProt P62575)
# RUN DESCRIPTION: biochemical
# Design: species or system Streptococcus pneumoniae DSM20566
# SETUP CONDITIONS: Ki (fit in Lineweaver-Burk plot, Supplementary Figure 2B)
READOUT KIND: Ki (nM)
API: value field is a number in nM; no unit string.

What measured Ki goes with Cc1cc(N=Nc2ccc(N=Nc3c(O)c(S(=O)(=O)O)cc4cc(S(=O)(=O)O)ccc34)cc2C)ccc1N=Nc1ccc2cc(S(=O)(=O)O)cc(S(=O)(=O)O)c2c1 [Compound 1] ?
103

###

# SUBJECT OF TEST: IAV WSN/33 NA-wt (whole virus) (Influenza A virus, UniProt P03470)
# Sequence (P03470 whole entry, looked up): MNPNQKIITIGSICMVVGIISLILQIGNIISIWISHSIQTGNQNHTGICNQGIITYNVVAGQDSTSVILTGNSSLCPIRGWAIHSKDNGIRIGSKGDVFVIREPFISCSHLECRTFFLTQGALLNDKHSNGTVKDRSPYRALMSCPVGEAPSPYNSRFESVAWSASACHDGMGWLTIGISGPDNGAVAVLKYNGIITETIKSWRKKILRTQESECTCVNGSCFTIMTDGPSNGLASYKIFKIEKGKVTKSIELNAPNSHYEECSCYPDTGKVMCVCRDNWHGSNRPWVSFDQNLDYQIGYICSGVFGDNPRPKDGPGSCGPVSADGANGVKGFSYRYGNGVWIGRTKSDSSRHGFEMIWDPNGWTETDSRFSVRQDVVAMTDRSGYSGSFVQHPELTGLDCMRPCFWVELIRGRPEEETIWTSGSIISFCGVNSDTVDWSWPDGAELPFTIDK
# RUN DESCRIPTION: biochemical
# Parameters: species or system influenza A virus A/WSN/1933 (H1N1)
# SETUP CONDITIONS: NA inhibition using FL assay IC50, IAV WSN/33
READOUT KIND: log10 IC50 (log10 of the value in µM)
Parameter value (number): base-10 log of IC50 in µM.

Examples with answers:
O=S(=O)(O)c1ccc2c(/N=N/c3c(O)ccc4ccccc34)cccc2c1 [Compound 14]; 1.46
O=[N+]([O-])c1ccc(/N=N/c2c(O)ccc3cc(S(=O)(=O)O)ccc23)cc1 [Compound 11]; 1.52
O=S(=O)(O)c1ccc(/N=N/c2ccc(/N=N/c3c(O)c(S(=O)(=O)O)cc4cc(S(=O)(=O)O)ccc34)cc2)cc1 [Compound 9]; 1.36
O=S(=O)(O)c1cc(S(=O)(=O)O)c2c(/N=N/c3cccc4ccccc34)c(O)ccc2c1 [Compound 16]; 1.65
COc1cc(/N=N/c2ccc(S(=O)(=O)O)cc2)ccc1/N=N/c1c(O)ccc2ccccc12 [Compound 7]; 0.63

# get_value(readout='log10 IC50', item= COc1cc(/N=N/c2ccc(S(=O)(=O)O)cc2)ccc1/N=N/c1c(O)ccc2cc(S(=O)(=O)O)ccc12 [Compound 8] )
0.81

What does the data say about its log10 IC50? Entry: O=S(=O)(O)c1cc(/N=N/c2c(O)ccc3ccccc23)c2c(S(=O)(=O)O)cccc2c1 [Compound 15]
1.46

Dear colleague, I am looking for the recorded log10 IC50 of the following compound: O=S(=O)(O)c1ccc(/N=N/c2ccc(/N=N/c3ccc(O)c4ccccc34)cc2)cc1 [Compound 6]
1.56

###

# RUN DESCRIPTION: in vitro
# SETUP CONDITIONS: dog
# CC50 annotations

Which measured CC50 value corresponds to O=S(=O)(O)c1cc2cccc(S(=O)(=O)O)c2c(O)c1/N=N/c1ccccc1 [Compound 17] ?
> 100 µM

Quick one: CC50 for O=S(=O)(O)c1ccc2c(/N=N/c3ccccc3)c(O)ccc2c1 [Compound 10] ?
> 100 µM

Record request: CC50 value, item Cc1ccccc1/N=N/c1ccc(/N=N/c2c(O)ccc3cc(S(=O)(=O)O)cc(S(=O)(=O)O)c23)c(C)c1 [Compound 5]
> 100 µM

###

We begin with a simple list: items and their reported IC50.
# SUBJECT OF TEST: IAV HK/68 NA (whole virus) (Influenza A virus)
# Sequence (Q91MA2 whole entry, looked up): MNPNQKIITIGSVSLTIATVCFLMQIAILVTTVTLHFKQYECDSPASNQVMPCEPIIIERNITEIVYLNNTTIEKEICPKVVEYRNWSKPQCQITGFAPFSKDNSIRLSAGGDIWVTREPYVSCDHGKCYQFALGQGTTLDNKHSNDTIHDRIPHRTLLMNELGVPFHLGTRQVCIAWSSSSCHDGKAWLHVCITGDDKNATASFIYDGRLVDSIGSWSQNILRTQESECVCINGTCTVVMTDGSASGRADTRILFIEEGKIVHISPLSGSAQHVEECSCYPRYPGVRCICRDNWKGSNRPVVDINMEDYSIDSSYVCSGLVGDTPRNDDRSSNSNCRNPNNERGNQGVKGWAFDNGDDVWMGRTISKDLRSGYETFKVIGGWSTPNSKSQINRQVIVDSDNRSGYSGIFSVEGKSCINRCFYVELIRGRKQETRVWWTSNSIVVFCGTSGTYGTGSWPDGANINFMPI
# RUN DESCRIPTION: biochemical
# Parameters: species or system influenza A virus A/Hong Kong/68 (H3N2)
# SETUP CONDITIONS: NA inhibition using FL assay IC50, IAV HK/68
Form entry: value (µM) — number only.

Some solved cases for reference:
COc1cc(/N=N/c2ccc(S(=O)(=O)O)cc2)ccc1/N=N/c1c(O)ccc2ccccc12; 87.2
O=S(=O)(O)c1ccc2c(/N=N/c3ccc(Sc4ccc(/N=N/c5c(O)ccc6cc(S(=O)(=O)O)ccc56)cc4)cc3)c(O)ccc2c1; 83
Cc1ccccc1/N=N/c1ccc(/N=N/c2c(O)ccc3cc(S(=O)(=O)O)cc(S(=O)(=O)O)c23)c(C)c1; 17.8
O=S(=O)(O)c1ccc(/N=N/c2ccc(/N=N/c3ccc(O)c4ccccc34)cc2)cc1; 83.4
O=S(=O)(O)c1ccc2c(/N=N/c3c(O)ccc4ccccc34)cccc2c1; 83
Cc1ccccc1/N=N/c1ccc(/N=N/c2c(O)ccc3cc(S(=O)(=O)O)ccc23)c(C)c1; 71.1
Cc1cc(N=Nc2ccc(N=Nc3c(O)c(S(=O)(=O)O)cc4cc(S(=O)(=O)O)ccc34)cc2C)ccc1N=Nc1ccc2cc(S(=O)(=O)O)cc(S(=O)(=O)O)c2c1; 1.42

Fill in the blank: the reported IC50 of O=[N+]([O-])c1ccc(/N=N/c2c(O)ccc3cc(S(=O)(=O)O)ccc23)cc1 is ____.
77.3

###

# SUBJECT OF TEST: S. pneumoniae recombinant NanA 20566_CC (Streptococcus pneumoniae, UniProt P62575)
# RUN DESCRIPTION: biochemical
# Set-up: species or system Streptococcus pneumoniae DSM20566
# SETUP CONDITIONS: Ki
READOUT KIND: pKi
// pKi: -log10(molar conc.)

Quick one: pKi of Cc1cc(N=Nc2ccc(N=Nc3c(O)c(S(=O)(=O)O)cc4cc(S(=O)(=O)O)ccc34)cc2C)ccc1N=Nc1ccc2cc(S(=O)(=O)O)cc(S(=O)(=O)O)c2c1 ?
6.80

###

# Test system: IAV 5258/09 NA
# RUN DESCRIPTION: Hemagglutination (HA)-based NA inhibition assay, IAV 5258/09
# Type: cell-based, influenza A virus A/Jena/5258/2009 (H1N1)
# SETUP CONDITIONS: human erythrocytes
READOUT KIND: NA inhibition using HA assay MIC, IAV 5258/09

Example cases with answers are listed next.
Cc1cc(N=Nc2ccc(N=Nc3c(O)c(S(=O)(=O)O)cc4cc(S(=O)(=O)O)ccc34)cc2C)ccc1N=Nc1ccc2cc(S(=O)(=O)O)cc(S(=O)(=O)O)c2c1; 10.00 ± 0.00 µM
O=[N+]([O-])c1ccc(/N=N/c2c(O)c(S(=O)(=O)O)cc3cc(S(=O)(=O)O)ccc23)cc1; Not active
Cc1ccccc1/N=N/c1ccc(/N=N/c2c(O)ccc3cc(S(=O)(=O)O)cc(S(=O)(=O)O)c23)c(C)c1; 10.00 ± 0.00 µM
O=S(=O)(O)c1cc(S(=O)(=O)O)c2c(/N=N/c3cccc4ccccc34)c(O)ccc2c1; 31.60 ± 0.00 µM
O=[N+]([O-])c1cccc(/N=N/c2c(O)c(S(=O)(=O)O)cc3cc(S(=O)(=O)O)ccc23)c1; Not active

Recorded NA inhibition using HA assay MIC, IAV 5258/09 for O=S(=O)(O)c1ccc2c(/N=N/c3c(O)ccc4ccccc34)cccc2c1 , please?
Not active^c

Which NA inhibition using HA assay MIC, IAV 5258/09 value belongs to O=S(=O)(O)c1ccc2c(/N=N/c3ccccc3)c(O)ccc2c1 ?
Not active^c

Entry O=S(=O)(O)c1cc2cccc(S(=O)(=O)O)c2c(O)c1/N=N/c1ccccc1 : reported NA inhibition using HA assay MIC, IAV 5258/09 = ?
Not active

What value of NA inhibition using HA assay MIC, IAV 5258/09 has been reported for the following molecule? Cc1ccccc1/N=N/c1ccc(/N=N/c2c(O)ccc3cc(S(=O)(=O)O)ccc23)c(C)c1
Not active^c

###

# SUBJECT OF TEST: S. pneumoniae DSM20566 NA (NanA) (Streptococcus pneumoniae, UniProt P62575)
# Construct: host or cells: either rNanA from E. coli BL21(DE3) or total precipitated protein of S. pneumoniae DSM20566
# Sequence (P62575 54-1035): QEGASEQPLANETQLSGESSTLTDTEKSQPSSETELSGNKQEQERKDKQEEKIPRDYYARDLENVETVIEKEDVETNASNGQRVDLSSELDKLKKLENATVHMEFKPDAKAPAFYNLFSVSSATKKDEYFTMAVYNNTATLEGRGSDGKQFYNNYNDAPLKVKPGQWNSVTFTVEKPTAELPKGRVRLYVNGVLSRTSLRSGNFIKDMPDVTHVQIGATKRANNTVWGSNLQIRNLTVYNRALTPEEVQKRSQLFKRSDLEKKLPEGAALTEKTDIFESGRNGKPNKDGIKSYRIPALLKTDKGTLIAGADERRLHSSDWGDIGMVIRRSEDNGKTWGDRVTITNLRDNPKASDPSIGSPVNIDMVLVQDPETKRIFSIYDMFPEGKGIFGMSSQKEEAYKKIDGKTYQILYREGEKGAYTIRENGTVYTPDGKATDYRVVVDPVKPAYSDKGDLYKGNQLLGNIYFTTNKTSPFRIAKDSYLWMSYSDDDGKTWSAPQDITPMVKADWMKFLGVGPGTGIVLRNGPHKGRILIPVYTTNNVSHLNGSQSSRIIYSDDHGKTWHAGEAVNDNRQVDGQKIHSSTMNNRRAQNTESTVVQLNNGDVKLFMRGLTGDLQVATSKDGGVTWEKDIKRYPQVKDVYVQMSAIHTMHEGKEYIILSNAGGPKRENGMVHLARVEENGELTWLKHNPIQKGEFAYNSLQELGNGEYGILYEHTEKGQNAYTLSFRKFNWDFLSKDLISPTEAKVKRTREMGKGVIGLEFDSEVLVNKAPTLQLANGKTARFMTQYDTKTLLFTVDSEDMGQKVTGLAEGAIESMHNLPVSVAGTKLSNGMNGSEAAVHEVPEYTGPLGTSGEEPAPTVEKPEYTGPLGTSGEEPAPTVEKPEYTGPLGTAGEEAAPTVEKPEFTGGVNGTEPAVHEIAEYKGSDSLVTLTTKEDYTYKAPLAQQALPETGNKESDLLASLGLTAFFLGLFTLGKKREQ
# RUN DESCRIPTION: FL NA inhibition assay, S. pneumoniae DSM20566
# Format: biochemical
# SETUP CONDITIONS: NA inhibition using FL assay IC50, S. p. DSM20566
READOUT KIND: pIC50
# pIC50 is unitless: minus log10 of the molar concentration; print number only

Return reported pIC50; argument: O=S(=O)(O)c1ccc2c(/N=N/c3ccc(Sc4ccc(/N=N/c5c(O)ccc6cc(S(=O)(=O)O)ccc56)cc4)cc3)c(O)ccc2c1
5.73

###

# SUBJECT OF TEST: S. pneumoniae recombinant NanA 9400_LC (Streptococcus pneumoniae, UniProt P62575)
# Sequence (P62575 116-833): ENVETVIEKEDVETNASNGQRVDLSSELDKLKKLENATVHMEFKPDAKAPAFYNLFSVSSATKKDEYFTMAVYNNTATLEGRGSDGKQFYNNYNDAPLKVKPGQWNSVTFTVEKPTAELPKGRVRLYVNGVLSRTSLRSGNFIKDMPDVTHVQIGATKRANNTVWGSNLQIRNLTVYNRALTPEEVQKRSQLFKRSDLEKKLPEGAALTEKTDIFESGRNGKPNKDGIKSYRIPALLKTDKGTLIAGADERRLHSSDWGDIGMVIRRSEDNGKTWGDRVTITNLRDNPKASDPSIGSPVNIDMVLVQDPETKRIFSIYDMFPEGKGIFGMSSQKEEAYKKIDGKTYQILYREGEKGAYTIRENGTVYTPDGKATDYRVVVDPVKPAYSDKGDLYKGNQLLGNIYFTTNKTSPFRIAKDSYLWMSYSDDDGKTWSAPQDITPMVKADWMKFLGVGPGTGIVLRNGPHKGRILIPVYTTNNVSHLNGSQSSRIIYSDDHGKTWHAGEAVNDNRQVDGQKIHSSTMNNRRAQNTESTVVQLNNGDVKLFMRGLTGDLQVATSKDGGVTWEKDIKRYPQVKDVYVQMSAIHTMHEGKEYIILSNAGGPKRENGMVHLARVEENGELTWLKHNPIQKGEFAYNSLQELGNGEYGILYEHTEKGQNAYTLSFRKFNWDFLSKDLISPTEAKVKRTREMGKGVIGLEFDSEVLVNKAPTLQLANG
# RUN DESCRIPTION: biochemical
# Parameters: species or system Streptococcus pneumoniae CJ9400
# SETUP CONDITIONS: Ki
READOUT KIND: Ki (nM)
The answer is to be given in nM; state only the numeric part.

Record request: Ki value, item Cc1cc(N=Nc2ccc(N=Nc3c(O)c(S(=O)(=O)O)cc4cc(S(=O)(=O)O)ccc34)cc2C)ccc1N=Nc1ccc2cc(S(=O)(=O)O)cc(S(=O)(=O)O)c2c1
190

###

Entries annotated with measured pIC50
# Test system: S. pneumoniae DSM20566
# RUN DESCRIPTION: Microtiter broth microdilution assay, planktonic growth
# Assay type: cell-based, Streptococcus pneumoniae DSM20566
# SETUP CONDITIONS: Streptococcus pneumoniae, DSM20566; 18 h, maximum 50 μM; read-out: 50% inhibitory concentration, S. pneumoniae DSM20566 planktonic growth
On this scale, pIC50 is minus log10 of a concentration expressed in M (mol/L).

Cc1ccccc1/N=N/c1ccc(/N=N/c2c(O)ccc3cc(S(=O)(=O)O)ccc23)c(C)c1; 4.92

What pIC50 value was documented for this compound, O=S(=O)(O)c1cc(S(=O)(=O)O)c2c(/N=N/c3cccc4ccccc34)c(O)ccc2c1 ?
4.92

Entry Cc1cc(N=Nc2ccc(N=Nc3c(O)c(S(=O)(=O)O)cc4cc(S(=O)(=O)O)ccc34)cc2C)ccc1N=Nc1ccc2cc(S(=O)(=O)O)cc(S(=O)(=O)O)c2c1 has what pIC50?
4.54

Which value of pIC50 has been reported for O=S(=O)(O)c1ccc2c(/N=N/c3ccc(/N=N/c4ccccc4)cc3)c(O)ccc2c1 in the records?
4.70

Consider the compound shown here: COc1cc(/N=N/c2ccc(S(=O)(=O)O)cc2)ccc1/N=N/c1c(O)ccc2ccccc12 What is its recorded pIC50?
5.48

Which pIC50 value belongs to O=S(=O)(O)c1ccc2c(/N=N/c3ccc(Sc4ccc(/N=N/c5c(O)ccc6cc(S(=O)(=O)O)ccc56)cc4)cc3)c(O)ccc2c1 ?
5.34

Could you share which pIC50 value was measured for O=S(=O)(O)c1ccc(/N=N/c2ccc(/N=N/c3ccc(O)c4ccccc34)cc2)cc1 ?
5.21
